Hello, the source for this data is patent EP4680608B1, in case you need it.

# target-under-test: UniProt:A5K1N1
# Sequence (A5K1N1 entry or part of it): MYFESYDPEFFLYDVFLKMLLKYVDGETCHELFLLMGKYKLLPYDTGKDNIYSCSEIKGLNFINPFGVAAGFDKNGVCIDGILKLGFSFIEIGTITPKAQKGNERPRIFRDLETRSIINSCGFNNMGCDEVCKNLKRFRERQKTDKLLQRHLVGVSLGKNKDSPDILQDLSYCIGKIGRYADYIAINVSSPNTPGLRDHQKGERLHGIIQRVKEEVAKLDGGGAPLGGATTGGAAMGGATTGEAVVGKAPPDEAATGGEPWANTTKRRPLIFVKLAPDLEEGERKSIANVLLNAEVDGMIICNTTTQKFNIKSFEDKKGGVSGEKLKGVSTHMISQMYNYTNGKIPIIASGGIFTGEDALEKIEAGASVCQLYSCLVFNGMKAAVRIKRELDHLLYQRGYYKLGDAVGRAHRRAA
# protocol-notes: DHODH inhibition, steady-state DCIP assay (PvDHODH)
# Assay type: biochemical
# run-parameters: recombinant PvDHODH, DCIP method, 25°C, 5 nM enzyme; read-out: P. vivax DHODH (IC50)
assay-readout: IC50 (nM)
A number alone suffices; assume nM.

# example entries with known answers
Cn1nc2c(=O)n(C3CC3)cnc2c1[C@](O)(c1cnc(C(F)(F)F)c(C#N)c1)C(F)(F)F (single isomer, unassigned)	46
Cn1nc2c(=O)n(C3CC3)ccc2c1[C@](O)(c1ccc(F)c(Cl)c1)C1CC1 (single isomer, unassigned)	11
CCn1ccc2c([C@](O)(c3ccc(C(F)(F)F)nc3)C3CC3)n(C)nc2c1=O (single isomer, unassigned)	29

Proceeding to the next molecule to report its IC50.
Give IC50 for CC[C@@](N)(c1cnc(C(F)(F)F)c(Cl)c1)c1c2ncn(C3CC3)c(=O)c2nn1C (single isomer, unassigned) tested on UniProt:A5K1N1. 40

* * *

Listed below: IC50 values for each entry.
# target-under-test: P. falciparum DHODH (Plasmodium falciparum)
# Construct: His6 (N)
# Sequence (Q08210 158-569): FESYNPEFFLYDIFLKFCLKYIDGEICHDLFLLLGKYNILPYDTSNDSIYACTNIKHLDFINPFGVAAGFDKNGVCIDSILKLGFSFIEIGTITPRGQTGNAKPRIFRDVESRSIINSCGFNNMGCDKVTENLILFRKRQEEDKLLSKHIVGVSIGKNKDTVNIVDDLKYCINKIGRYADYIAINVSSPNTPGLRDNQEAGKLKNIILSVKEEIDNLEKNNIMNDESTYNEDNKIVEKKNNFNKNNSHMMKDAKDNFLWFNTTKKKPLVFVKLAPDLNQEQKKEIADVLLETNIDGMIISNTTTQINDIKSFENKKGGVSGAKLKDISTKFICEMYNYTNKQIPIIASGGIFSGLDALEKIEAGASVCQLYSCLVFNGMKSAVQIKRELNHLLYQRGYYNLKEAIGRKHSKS
# protocol-notes: DHODH inhibition, steady-state DCIP assay (PfDHODH)
# run-parameters: recombinant PfDHODH, DCIP method, 25°C, 5 nM enzyme

# example entries with known answers
Cn1nc2c(=O)n(C3CC3)cnc2c1[C@](N)(c1ccc(C(F)(F)F)c(Cl)c1)C1CC1 (single isomer, unassigned) [4-24]	11 nM
CC[C@@](N)(c1ccc(C(F)(F)F)c(Cl)c1)c1c2ncn(C3CC3)c(=O)c2nn1C (single isomer, unassigned) [4-26]	9.5 nM
Cn1nc2c(=O)n(C3CC3)ccc2c1[C@](N)(c1ccc(C(F)(F)F)c(C#N)c1)C(F)(F)F (single isomer, unassigned) [5-45]	8.2 nM
Cn1nc2c(=O)n(C3CC3)ccc2c1[C@](O)(c1ccc(F)c(Cl)c1)C(F)(F)F (single isomer, unassigned) [5-9]	14 nM
Cn1nc2c(=O)n(C3CC3)cnc2c1[C@](C)(N)c1ccc(C(F)(F)F)c(Cl)c1 (single isomer, unassigned) [4-20]	8.2 nM

Query IC50 for CCn1ccc2c([C@](C)(O)c3ccc(C(F)(F)F)c(Cl)c3)n(C)nc2c1=O (single isomer, unassigned) [1-46] 10 nM

Query IC50 for Cn1nc2c(=O)n(CC(F)(F)F)cnc2c1[C@](O)(c1ccc(C(F)(F)F)c(Cl)c1)C(F)(F)F [5-26] 17 nM

Query IC50 for Cn1nc2c(=O)n(C3CC3)ccc2c1[C@](O)(c1cnc(C(F)(F)F)c(Cl)c1)C1CC1 (single isomer, unassigned) [1-16] 16 nM

Query IC50 for Cn1nc2c(=O)n(C3CC3)ccc2c1[C@](O)(c1ccc(C(F)(F)F)c(C#N)c1)C1CC1 (single isomer, unassigned) [1-3] 17 nM

Query IC50 for Cn1nc2c(=O)n(C3CC3)ncc2c1[C@](O)(c1ccc(C(F)(F)F)c(Cl)c1)C(F)(F)F (single isomer, unassigned) [5-15] 8.6 nM

Query IC50 for CC[C@@](O)(c1ccc(F)c(Cl)c1)c1c2ccn(C3CC3)c(=O)c2nn1C (single isomer, unassigned) [1-13] 7 nM

* * *

# Test system: P. falciparum 3D7
# protocol-notes: Asexual blood-stage growth inhibition assay, SYBR green method
# Type: cell-based
# run-parameters: Plasmodium falciparum, 3D7, 72 h, ring-stage 3D7 parasites
assay-readout: EC50 (nM)
A number alone suffices; assume nM.

Cn1nc2c(=O)n(C3CC3)ccc2c1[C@](C)(O)c1cnc(C(F)(F)F)c(Cl)c1 [1-10]	1.4

Proceeding to the next molecule to report its EC50.
Query EC50 for CCn1ccc2c([C@](C)(O)c3cnc(C(F)(F)F)c(Cl)c3)n(C)nc2c1=O (single isomer, unassigned) [1-36] 1.4
